Reported pKi by item:
# TARGET_OR_SYSTEM: recombinant RORγ Ligand Binding Domain (LBD) protein (Homo sapiens, UniProt P51449)
# Construct: 6×His; GST
# Sequence (P51449 269-508 limits assumed): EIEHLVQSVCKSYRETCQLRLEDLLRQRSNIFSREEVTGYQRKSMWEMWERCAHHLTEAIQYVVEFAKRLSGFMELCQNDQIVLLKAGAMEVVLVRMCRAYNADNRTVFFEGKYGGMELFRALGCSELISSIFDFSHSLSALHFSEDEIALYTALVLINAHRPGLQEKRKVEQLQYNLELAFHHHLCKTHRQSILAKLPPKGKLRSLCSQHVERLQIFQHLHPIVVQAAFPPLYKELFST
# ASSAY_SUMMARY: Radio-Ligand RORγ Binding Assay (Assay 1)
# EXPERIMENTAL_CONTEXT: radio-ligand competition, RORγ LBD; head without unit (Tables 15, 17); read-out: Avg ROR Bind Ki
pKi: −log10 of the molar value.
MEASUREMENT_TYPE: pKi

>>> obs_value("CCS(=O)(=O)c1ccc(CNC(=O)c2cnc3c(c2)CCN(c2ncc(C#N)cn2)[C@H]3C(C)C)cc1 (single isomer, unassigned) [Hy2B-1.1]")
"< 6.00"
>>> obs_value("CCS(=O)(=O)c1ccc(CNC(=O)c2cnc3c(c2)CCN(c2ncc(Cl)cn2)[C@H]3C(C)C)cc1 (single isomer, unassigned) [Hy2B-2.1]")
"6.00 to 7.00"
>>> obs_value("CCS(=O)(=O)c1ccc(CNC(=O)c2cnc3c(c2)CCN(Cc2ccc(C#N)cc2)C3C(C)C)cc1 (single isomer, unassigned) [Hy2B-7.1]")
"> 7.00"
>>> obs_value("CCS(=O)(=O)c1ccc(CNC(=O)c2cnc3c(c2)CCN(c2ncc(C(F)(F)F)cn2)[C@H]3C(C)C)cc1 (single isomer, unassigned) [Hy2B-3.1]")
"6.00 to 7.00"
>>> obs_value("CCS(=O)(=O)c1ccc(CNC(=O)c2cnc3c(c2)CCN(C[C@H]2CC[C@H](C(F)(F)F)CC2)[C@H]3C(C)C)cc1 (single isomer, unassigned) [Hy2B-9.1]")
"> 7.00"
>>> obs_value("CCS(=O)(=O)c1ccc(CNC(=O)c2cnc3c(c2)CCN(Cc2ccc(F)cc2)C3C(C)C)cc1 (single isomer, unassigned) [Hy2B-6.2]")
"6.00 to 7.00"
>>> obs_value("CCS(=O)(=O)c1ccc(CNC(=O)c2cnc3c(c2)CCN(C[C@H]2CC[C@H](C(F)(F)F)CC2)[C@@H]3C(C)C)nc1 (single isomer, unassigned) [Hy2B-10.2]")
"6.00 to 7.00"
>>> obs_value("CCS(=O)(=O)c1ccc(CNC(=O)c2cnc3c(c2)CCN(Cc2ccc(C#N)cc2)C3C(C)C)cc1 (single isomer, unassigned) [Hy2B-7.2]")
"< 6.00"
>>> obs_value("CCS(=O)(=O)c1ccc(CNC(=O)c2cnc3c(c2)CCN(Cc2ccc(Cl)cc2)C3C(C)C)cc1 (single isomer, unassigned) [Hy2B-8.2]")
"6.00 to 7.00"
>>> obs_value("CCS(=O)(=O)c1ccc([C@H](CO)NC(=O)c2cc3ccnc(OCc4ccc(C(F)(F)F)cc4)c3n2C)cc1 [Hy4-4]")
"> 7.00"
>>> obs_value("CCOC(=O)c1cnc(N2CCc3cc(C(=O)NCc4ccc(S(=O)(=O)CC)cc4)cnc3[C@H]2C(C)C)nc1 (single isomer, unassigned) [Hy2B-4.1]")
"< 6.00"
>>> obs_value("CCS(=O)(=O)c1ccc(CNC(=O)c2cc3ccnc(OC[C@H]4CC[C@H](C(F)(F)F)CC4)c3n2C)cc1 [Hy4-1]")
"> 7.00"

---

# TARGET_OR_SYSTEM: full-length RORγt in Jurkat cells (Homo sapiens)
# Construct: transcriptional activity of the full-length RORγt in Jurkat cells; host or cells: Jurkat cells (ATCC TIB-152)
# Sequence (P51449 1-497 isoform P51449-2): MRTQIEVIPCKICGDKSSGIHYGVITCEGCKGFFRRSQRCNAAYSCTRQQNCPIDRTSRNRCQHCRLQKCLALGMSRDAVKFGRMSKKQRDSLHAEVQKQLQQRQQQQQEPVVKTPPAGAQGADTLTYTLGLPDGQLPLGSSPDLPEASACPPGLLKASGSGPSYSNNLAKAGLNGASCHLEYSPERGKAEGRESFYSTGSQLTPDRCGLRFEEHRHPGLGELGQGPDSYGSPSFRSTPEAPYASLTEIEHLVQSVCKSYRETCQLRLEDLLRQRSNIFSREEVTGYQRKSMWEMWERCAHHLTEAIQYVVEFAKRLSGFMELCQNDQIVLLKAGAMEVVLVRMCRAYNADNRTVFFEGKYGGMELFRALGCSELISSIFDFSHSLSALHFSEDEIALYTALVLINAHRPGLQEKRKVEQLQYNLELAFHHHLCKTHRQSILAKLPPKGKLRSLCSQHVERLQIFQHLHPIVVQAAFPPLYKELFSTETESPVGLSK
# ASSAY_SUMMARY: RORγt 5×RORE Assay in Jurkat Cells (Assay 2)
# Assay type: cell-based
# EXPERIMENTAL_CONTEXT: 5×RORE luciferase reporter, read-out: Avg ROR γt/5x IC50
pIC50: −log10 of the molar value.
Reported pIC50 by item:
MEASUREMENT_TYPE: pIC50

>>> obs_value("CCS(=O)(=O)c1ccc([C@H](CO)NC(=O)c2ccc3c(C4CC4)n(Cc4ccc(C(F)(F)F)cc4)nc3c2)cc1 [Hy3A-4]")
"> 7.00"
>>> obs_value("CCS(=O)(=O)c1ccc([C@H](CO)NC(=O)c2ccc3c(OC[C@H]4CC[C@H](C(F)(F)F)CC4)nc(Cl)cc3c2)cc1 [Hy1A-11]")
"> 7.00"
>>> obs_value("CCS(=O)(=O)c1ccc(C(C)NC(=O)c2ccc3c(c2)CCN(Cc2cnc(C)cn2)C3C(C)C)cc1 (racemic) [Hy2A-18]")
"6.00 to 7.00"
>>> obs_value("CCS(=O)(=O)c1ccc([C@H](CO)NC(=O)c2ccc3c(OC[C@H]4CC[C@H](C(F)(F)F)CC4)nc(OC)cc3c2)cc1 [Hy1A-23]")
"> 7.00"
